Taken from patent US10987322B2.

pIC50: −log10 of the molar value.
Record type: pIC50 measurement. Applies to: IDO (Homo sapiens)

{"COMPOUND": "CCCC/C(=N/O)Nc1cccc(Cl)c1", "TARGET_OR_SYSTEM": "IDO (Homo sapiens)", "pIC50": "> 6.00"}

Lab note: compound O/N=C(/CC(O)C1CCCCC1)Nc1ccc(Cl)c(F)c1 (centres unmarked) tested on IDO (Homo sapiens); recorded pIC50 was > 4.00

====

pIC50: −log10 of the molar value.
Reported pIC50 values, UniProt:P14902.

Below: 5 compounds and their reported pIC50.
{"COMPOUND": "CC(C)(C)C/C(=N/O)Nc1cccc(Cl)c1", "ASSAY_READOUT": "pIC50", "MEAS_VALUE": "> 4.00"}
{"COMPOUND": "O/N=C(/CC(O)C1CCCCC1)Nc1cc(F)cc(Cl)c1 (stereo not drawn)", "ASSAY_READOUT": "pIC50", "MEAS_VALUE": "> 4.00"}
{"COMPOUND": "O/N=C(/CCC1CCCCC1)Nc1cccc(Cl)c1", "ASSAY_READOUT": "pIC50", "MEAS_VALUE": "> 6.00"}
{"COMPOUND": "O/N=C(/CC1CCCCC1)Nc1cccc(Cl)c1", "ASSAY_READOUT": "pIC50", "MEAS_VALUE": "> 6.00"}
{"COMPOUND": "O/N=C(/CC1CCCO1)Nc1cccc(Cl)c1 (stereo not drawn)", "ASSAY_READOUT": "pIC50", "MEAS_VALUE": "> 5.00"}

// field: pIC50; key: O/N=C(/CC(O)C1CCCCC1)Nc1cc(Cl)cc(Cl)c1 (stereo not drawn) ; value = > 5.00

Entry CC/C(=N/O)Nc1cccc(Cl)c1 ; pIC50 = > 5.00

Please fill in: pIC50 reported for CCCCC/C(=N/O)Nc1cccc(Cl)c1 = > 6.00

// sample CCCCCC/C(=N/O)Nc1cccc(Cl)c1 , its pIC50 was > 6.00
